The values you see were collected from patent US20240199546A1.

Target: human SLC6A19 and TMEM27 (Homo sapiens, UniProt Q695T7)
Construct: expressed in transfected cells
Test: Radiolabelled (3H) leucine uptake in CHO cells with doxycycline-inducible expression of human SLC6A19 and TMEM27 (Example B-1)
Format: cell-based
Conditions: CHO cells with doxycycline-inducible expression of human SLC6A19 and TMEM27, read-out: SLC6A19_Radioligand Uptake Assay IC50
measure: IC50 (nM)
Your answer is read as nM, so omit the unit and give the number.

Give the measured IC50 of O=C(NCc1cc2cc(F)c(OCc3cscn3)cc2[nH]1)C1(C(F)(F)F)CC1 .
98

Give the measured IC50 of Cc1cc(COc2cc3[nH]c(CNC(=O)CO)cc3cc2Cl)on1 .
674

Give the measured IC50 of Cc1c(CNC(=O)N2CCC2)[nH]c2cc(OCc3cscn3)c(Cl)cc12 .
293

Give the measured IC50 of Cc1cc(COc2cc3[nH]c(CNC(=O)C4(C(F)(F)F)CC4)cc3cc2Cl)no1 .
198

----------
Target: human SLC6A19 and TMEM27 (Homo sapiens, UniProt Q695T7)
Construct: expressed in transfected cells
Sequence (Q695T7 1-634): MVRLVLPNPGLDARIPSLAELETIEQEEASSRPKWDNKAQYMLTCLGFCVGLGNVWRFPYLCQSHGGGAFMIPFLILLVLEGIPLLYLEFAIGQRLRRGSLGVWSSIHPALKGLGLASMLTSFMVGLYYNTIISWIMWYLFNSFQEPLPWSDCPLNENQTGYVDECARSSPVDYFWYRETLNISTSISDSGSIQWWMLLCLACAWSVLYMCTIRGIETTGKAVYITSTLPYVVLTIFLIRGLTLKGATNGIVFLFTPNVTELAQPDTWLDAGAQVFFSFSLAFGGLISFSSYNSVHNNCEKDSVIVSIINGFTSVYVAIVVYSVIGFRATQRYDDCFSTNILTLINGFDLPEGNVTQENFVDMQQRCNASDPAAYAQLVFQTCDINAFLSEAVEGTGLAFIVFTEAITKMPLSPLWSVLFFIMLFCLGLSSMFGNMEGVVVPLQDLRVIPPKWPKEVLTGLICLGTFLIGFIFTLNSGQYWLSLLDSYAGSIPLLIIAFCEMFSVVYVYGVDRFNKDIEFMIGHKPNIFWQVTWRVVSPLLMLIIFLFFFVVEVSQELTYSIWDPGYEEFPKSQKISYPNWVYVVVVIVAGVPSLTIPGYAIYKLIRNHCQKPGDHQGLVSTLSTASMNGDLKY
Sequence (Q9HBJ8 15-222 partner): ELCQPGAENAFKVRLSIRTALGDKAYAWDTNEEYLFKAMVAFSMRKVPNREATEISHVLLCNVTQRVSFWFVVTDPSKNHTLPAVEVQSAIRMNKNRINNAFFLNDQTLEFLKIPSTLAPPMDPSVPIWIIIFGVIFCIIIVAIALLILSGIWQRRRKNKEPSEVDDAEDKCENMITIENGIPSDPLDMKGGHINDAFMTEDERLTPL
Experiment: Radiolabelled (3H) leucine uptake in CHO cells with doxycycline-inducible expression of human SLC6A19 and TMEM27 (Example B-1)
Format: cell-based
Settings: CHO cells with doxycycline-inducible expression of human SLC6A19 and TMEM27, read-out: SLC6A19_Radioligand Uptake Assay IC50
Assignment: determine reported IC50 for the given compounds.
Your answer is read as nM, so omit the unit and give the number.

Give the measured IC50 of CC1(C(=O)NCc2cc3cc(Cl)c(CCc4ccon4)cc3[nH]2)CC1 .
120

Give the measured IC50 of O=C(NCc1cc2cc(OC(F)(F)F)c(CCc3ccon3)cc2[nH]1)N1CCCC1 .
358

Give the measured IC50 of Cc1nc(COc2cc3[nH]c(CNC(=O)C(C)C)cc3cc2F)co1 .
954

Give the measured IC50 of CC1(C(=O)NCc2cc3cc(Cl)c(OCCC4CCC4)cc3[nH]2)CC1 .
676

Give the measured IC50 of CC1(C(=O)NCc2cc3cc(F)c(NCc4ccon4)cc3[nH]2)CC1 .
400

Give the measured IC50 of CC1(C(=O)NCc2cc3cc(Cl)c(OCC4CC4)cc3[nH]2)CC1 .
181

Give the measured IC50 of Cc1cc(COc2cc(F)c3cc(CNC(=O)C4(C)CC4)[nH]c3c2)on1 .
328

Give the measured IC50 of Cc1cc(COc2cc3[nH]c(CNC(=O)[C@H]4COCCN4C)cc3cc2Cl)on1 .
7110

Give the measured IC50 of CC(NC(=O)C1(C)CC1)c1cc2cc(Cl)c(OCc3ccon3)cc2[nH]1 (racemic) .
2140

Give the measured IC50 of O=C(NCc1cc2cc(Cl)c(OCc3cscn3)cc2[nH]1)N1CCC(O)C1 (racemic) .
1530

Give the measured IC50 of CC1(C(=O)NCc2cc3ccc(OCCc4ccon4)cc3[nH]2)CC1 .
185

Give the measured IC50 of CC1CCN(C(=O)NCc2cc3cc(F)c(OCc4ccon4)cc3[nH]2)C1 (centres unmarked) .
524

Give the measured IC50 of Cc1cc(COc2cc3[nH]c(CNC(=O)CC(F)F)cc3cc2F)on1 .
179

Give the measured IC50 of CC(F)C(=O)NCc1cc2cc(Cl)c(OCc3cscn3)cc2[nH]1 (single isomer, unassigned) [Compound 443] .
64.2

Give the measured IC50 of Cc1cc(COc2cc3[nH]c(CNC(=O)[C@H]4CCO4)cc3cc2Cl)on1 .
119

Give the measured IC50 of O=C(NCc1cc2cc(Cl)c(OCc3cscn3)cc2[nH]1)C1COC1 .
105

Give the measured IC50 of CO[C@H](C)C(=O)NCc1cc2cc(Cl)c(OCc3cscn3)cc2[nH]1 .
666

Give the measured IC50 of Cn1ncc(COc2cc3[nH]c(CNC(=O)C4(C)CC4)cc3cc2Cl)n1 .
157

Give the measured IC50 of Cc1cc(CC(C)c2ccc3cc(CNC(=O)C4(C)CC4)[nH]c3c2)no1 (centres unmarked) .
1960

Give the measured IC50 of O=C(NCc1cc2cc(Cl)c(OCc3cscn3)cc2[nH]1)C12CC(C1)C2 .
340

Give the measured IC50 of O=C(NCc1cc2cc(F)c(OCc3cscn3)cc2[nH]1)C1CCO1 (centres unmarked) .
243

Give the measured IC50 of CC(=O)NCc1cc2cc(Cl)c(OCc3cscn3)cc2[nH]1 .
87

Give the measured IC50 of [2H]C([2H])(NC(C)=O)c1cc2cc(Cl)c(OCc3cc(C)no3)cc2[nH]1 .
62.7

Give the measured IC50 of O=C(NCc1cc2cc(F)c(OCc3ccon3)cc2[nH]1)N1CCCCC1 .
477

Give the measured IC50 of O=C(NCc1cc2cc(Cl)c(CCc3cscn3)cc2[nH]1)N1CCCC1 .
163

Give the measured IC50 of O=C(NCc1cc2cc(Cl)c(OCc3cscn3)cc2[nH]1)[C@@H]1C[C@@H]1F .
123

Give the measured IC50 of Cc1cc(CNc2cc3[nH]c(CNC(=O)C4(C)CC4)cc3cc2Cl)no1 .
237

Give the measured IC50 of O=C(NCc1cc2cc(OC(F)(F)F)c(CCc3cocn3)cc2[nH]1)N1CCC1 .
145

Give the measured IC50 of COC1CN(C(=O)NCc2cc3cc(Cl)c(OCc4cscn4)cc3[nH]2)C1 .
690

Give the measured IC50 of CC1CCN(C(=O)NCc2cc3cc(Cl)c(OCc4ccon4)cc3[nH]2)C1 (centres unmarked) .
365

Give the measured IC50 of CC1(C(=O)NCc2cc3ccc(SCc4ccon4)cc3[nH]2)CC1 .
207

Give the measured IC50 of O=C(NCc1cc2cc(Cl)c(NCc3cscn3)cc2[nH]1)N1CCC1 .
304

Give the measured IC50 of CC1(C(=O)NCc2cc3cc(F)c(OCc4ccon4)cc3[nH]2)CC1 .
175

Give the measured IC50 of O=C(NCc1cc2cc(C3CC3)c(OCc3ccon3)cc2[nH]1)N1CCCC1 .
537

Give the measured IC50 of O=C(NCc1cc2cc(C(F)(F)F)c(OCc3cscn3)cc2[nH]1)N1CCC1 .
416

----------
Biological target: human SLC6A19 and TMEM27 (Homo sapiens)
Construct: expressed in transfected cells
Assay: Radiolabelled (3H) leucine uptake in CHO cells with doxycycline-inducible expression of human SLC6A19 and TMEM27 (Example B-1)
Type: cell-based
Details: CHO cells with doxycycline-inducible expression of human SLC6A19 and TMEM27, read-out: SLC6A19_Radioligand Uptake Assay IC50
Description: The flasks were then incubated (humidified, 37° C. with 5% CO2) for 2 minutes. After incubation, 10 mL of pre-warmed cell culture media was added to each flask. The cell suspension was collected and centrifuged for 5 minutes at 200×g. […] The resuspended cells were counted using the Countess Cell Counting Chamber (Invitrogen) and the cell concentration of the suspension was readjusted to 1 million live cells/mL using pre-warmed cell culture media. […]
Assignment: determine reported pIC50 for the given compounds.
By convention, pIC50 is the negative base-10 log of a molar concentration.

Hello, I am looking for reported pIC50 with human SLC6A19 and TMEM27 (Homo sapiens) for CC(C)c1cc2cc(CNC(=O)C3(C)CC3)[nH]c2cc1OCc1ccon1 . Could you help?
6.27

Hello, I am looking for reported pIC50 with human SLC6A19 and TMEM27 (Homo sapiens) for Cn1ncc(COc2cc3[nH]c(CNC(=O)N4CCC4)cc3cc2F)n1 . Could you help?
5.93

Hello, I am looking for reported pIC50 with human SLC6A19 and TMEM27 (Homo sapiens) for Cc1cnc(COc2cc3[nH]c(CNC(=O)C4(C)CC4)cc3cc2Cl)s1 . Could you help?
6.52

Hello, I am looking for reported pIC50 with human SLC6A19 and TMEM27 (Homo sapiens) for CC1(C(=O)NCc2cc3cc(Cl)c(OCc4cscn4)c(F)c3[nH]2)CC1 . Could you help?
7.11

Hello, I am looking for reported pIC50 with human SLC6A19 and TMEM27 (Homo sapiens) for CC(=O)NCc1cc2cc(Cl)c(OCCC3CCCO3)cc2[nH]1 (stereo not drawn) . Could you help?
5.45

Hello, I am looking for reported pIC50 with human SLC6A19 and TMEM27 (Homo sapiens) for O=C(NCc1cc2cc(Cl)c(OCc3ccon3)cc2[nH]1)C1CC1 . Could you help?
7.13

Hello, I am looking for reported pIC50 with human SLC6A19 and TMEM27 (Homo sapiens) for [2H]C([2H])([2H])C(=O)NCc1cc2cc(F)c(OCc3cscn3)cc2[nH]1 . Could you help?
6.84

Hello, I am looking for reported pIC50 with human SLC6A19 and TMEM27 (Homo sapiens) for CC1(C(=O)NCc2cc3cc(C4CC4)c(OCc4cscn4)cc3[nH]2)CC1 . Could you help?
6.56

Hello, I am looking for reported pIC50 with human SLC6A19 and TMEM27 (Homo sapiens) for CC1(C(=O)NCc2cc3cc(Cl)c(CNc4ccon4)cc3[nH]2)CC1 . Could you help?
6.52
